Tested on: normal human dermal fibroblasts (NHDF) cells
Experiment: Fibroblast cytotoxicity (CellTiter-Glo)
Type: cell-based
Conditions: 10 µM
Items are presented alongside their recorded Cytotoxicity: Relative Cell Viability (% of Negative Control).

{"columns": ["compound", "obs_value"],
 "data": [
  ["O=C(Cc1cccc2ccccc12)N1CCC(c2ccsc2)CC1", "94.3 % of Negative Control"]
]}

Inquiry: Form field: reported Cytotoxicity: Relative Cell Viability (% of Negative Control) of O=[N+]([O-])CC(SCCO)c1ccc(O)cc1 (centres unmarked)
Reply text: 25.2 % of Negative Control

Inquiry: Item under review: Clc1ccc2nc(SCCc3ccccc3)[nH]c2c1 . Reported Cytotoxicity: Relative Cell Viability (% of Negative Control)?
Reply text: 34.2 % of Negative Control

Inquiry: Query (compound): O=C(CCSc1ccc(Cl)cc1)Nc1ccc2scnc2c1 ; field requested: Cytotoxicity: Relative Cell Viability (% of Negative Control)
Reply text: 96.1 % of Negative Control

Inquiry: Looking for the measured Cytotoxicity: Relative Cell Viability (% of Negative Control) of O=C(CCSc1ccccc1)N1CCC(c2cccs2)CC1 , can you help?
Reply text: 89.8 % of Negative Control
